Attribution: ChEMBL document CHEMBL1150818

# PROTOCOL: Selectivity index, ratio of IC50 for african green monkey (Cercopithecus aethiops) Vero cells to IC50 for Plasmodium falciparum W2
# Type: toxicity, cell-based
# SETUP_CONDITIONS: read-out: Ratio IC50
MEASURED_PROPERTY: selectivity ratio

STRUCTURE_SMILES_STRING | OBSERVED_RESULT
CC1=C(CC/C(C)=C/CC[C@@]2(C)CC[C@@H]([C@@H](C)C(=O)O)OO2)C(C)(C)CCC1 | > 1

Let's switch to this compound now.
Q: Dear colleague, please send me the reported selectivity ratio for C=C1CCC[C@@H]2[C@@H](CC[C@@]3(C)CC[C@H]([C@H](C)C(=O)O)OO3)[C@H](C)CC[C@@]12C when you can.
Result: > 1
